melting point reference

Example cases with answers are listed next.
# COMPOUND, melting point
records = [
    ("CN1C[C@H](O)C[C@H]1CCOc1ccc(Cl)cc1CCc1ccccc1", "65 to 68 °C"),
    ("COCCc1ccc(-c2ccc3c(c2)C=C(C(=O)Nc2ccc(CN(C)C4CCOCC4)cc2)CCS3(=O)=O)cc1", "216 to 219 °C"),
    ("CCCCS(=O)(=O)NC(=O)c1ccc2nc(C)n(Cc3ccc(-c4ccccn4)cc3)c2c1", "292 to 298 °C"),
    ("CCCOC(=O)c1cn(C(C)(C)C)c2ncc([N+](=O)[O-])cc12", "116 to 120 °C"),
]

Query: Which melting point reading was recorded for the compound CC(C(=O)O)c1c(-c2ccccc2)nn(-c2ccccc2)c1-c1ccccc1 (stereo not given) ?
Response: 95 to 99 °C

Query: Which melting point reading was recorded for the compound COc1nc2cc(Br)c3c(c2nc1OC)CCN(C)C3 ?
Response: 162 °C

Query: Which melting point reading was recorded for the compound Cc1cc(N2N=CCNC2=O)cc(Cl)c1C(=O)c1ccc(Cl)cc1 ?
Response: 171 to 172 °C

Query: Which melting point reading was recorded for the compound OCCCNc1ccc2ncnn2n1 ?
Response: 193 to 194 °C

Query: Which melting point reading was recorded for the compound O=C(O)c1ccc2c(c1)Sc1cc3c(cc1C=C2)CCC3 ?
Response: 103 to 104 °C

Query: Which melting point reading was recorded for the compound COc1cc(OC)nc(-n2c(OC)nc3ccccc32)n1 ?
Response: 121 to 122 °C

* * *

melting point reference

Example cases with answers are listed next.
# COMPOUND, melting point
data = [
    ("CC1(c2ccc(-c3ccccc3)cc2)OC(=O)C(OCc2ccccc2)=C1O (stereo unspecified)", "182 to 183 °C"),
    ("COc1ccc(CCCc2ccc(O)cc2)c(O)c1", "95 to 96 °C"),
]

Query: Which melting point reading was recorded for the compound CCC(O)c1cc2ccccc2cc1CO (stereo unspecified) ?
Response: 70 °C

Query: Which melting point reading was recorded for the compound COC(=O)c1ccc(OCCNC(=O)C2Cc3ccccc3N2S(=O)(=O)c2ccc(-c3ccc(F)cc3Cl)cc2)cc1F (stereo unspecified) ?
Response: 71 to 76 °C

Query: Which melting point reading was recorded for the compound CC(C)c1ccc(C(Cl)=NOS(C)(=O)=O)cc1 ?
Response: 79.5 to 82 °C

* * *

melting point reference

Example cases with answers are listed next.
# MOLECULE, PROPERTY_MEASURED, ENDPOINT_VALUE
rows = [
    ("CCC(=O)N1CCN(C(=O)Cl)CC1", "melting point", "45 °C"),
    ("O=C(O)c1cc2cc(Cl)ccc2nc1N[C@@H](Cc1ccc(O)cc1)C(=O)O", "melting point", "176 to 188 °C"),
]

Query: Which melting point reading was recorded for the molecule CNC(=S)C1(c2cnc3ccccc3c2)CCCCC1=O (stereo unspecified) ?
Response: 235 to 236 °C

Query: Which melting point reading was recorded for the molecule Oc1ccc(-n2nc3c(c2Cl)CCCC3)c(F)c1 ?
Response: 214 to 216 °C

Query: Which melting point reading was recorded for the molecule OCC(CC(F)(F)F)Nc1nc(-c2ccc(Br)cc2)cs1 (stereo unspecified) ?
Response: 120 to 121 °C

Query: Which melting point reading was recorded for the molecule Cc1cccc(C)c1N1C(=O)CS/C1=N\C(=O)Nc1ccc(-c2ncn(-c3ccc(OC(F)(F)F)cc3)n2)cc1 ?
Response: 190 to 196 °C

Query: Which melting point reading was recorded for the molecule COc1ccc2cc3ncc(C#N)c(Nc4ccc(Cl)cc4Cl)c3cc2c1 ?
Response: 215 to 217 °C

Query: Which melting point reading was recorded for the molecule CCC(=O)NC1=NN(c2nc3ccccc3s2)C(c2ccc(C)cc2)C1 (stereo unspecified) ?
Response: 208 to 209 °C

Query: Which melting point reading was recorded for the molecule CC(=O)Nc1ccc(C(=N)Nc2cc(NC(=O)/C=C/c3ccccc3C(F)(F)F)c(F)cc2F)cc1 ?
Response: 180 to 185 °C

Query: Which melting point reading was recorded for the molecule CCOC(=O)C(C)NC(=O)CN(C(=O)c1ccc(Cl)cc1)c1c(C)cccc1C (stereo unspecified) ?
Response: 91 to 92 °C

Query: Which melting point reading was recorded for the molecule O=C(NCCO)c1cccc(-c2cccc3c2CN(Cc2cccc(C(F)(F)F)c2)C3=O)c1 ?
Response: 148 to 149 °C

Query: Which melting point reading was recorded for the molecule Cc1ccnc2c1C(=O)CC(c1ccsc1)C2 (stereo unspecified) ?
Response: 92 to 93 °C

Query: Which melting point reading was recorded for the molecule CN1CCC(c2c[nH]c3cc(NC(=N)c4cccs4)ccc23)C1 (stereo unspecified) ?
Response: 89 to 91 °C

Query: Which melting point reading was recorded for the molecule Cn1cc(-c2ccc(C(=O)O)cn2)cn1 ?
Response: 262 to 264 °C

Query: Which melting point reading was recorded for the molecule CNCc1cccc2c(=O)c(C)c(-c3ccccc3)oc12 ?
Response: 97 to 99 °C

* * *

melting point reference

Example cases with answers are listed next.
# MOLECULE, melting point
measured = [
    ("Cc1ccc(Cn2ncc(-c3ccc(S(C)(=O)=O)cc3)c(-c3ccc(F)cc3)c2=O)s1", "172 to 175 °C"),
    ("CC1=Nc2c(F)c(F)c(F)c(F)c2SN1", "290 to 291 °C"),
    ("Cc1ccc(-c2cc(CNC(CO)CO)c(=O)n(CC(C)C)n2)cc1", "134 to 135 °C"),
    ("COc1cccc(C2C(CO)CC(=O)N2c2ccccc2)c1 (centres undefined)", "123 to 126 °C"),
    ("COc1ccc(C(=O)Nc2ccc3ccc(S(=O)CCN(C)C)nc3n2)cc1 (centres undefined)", "158 °C"),
]

Query: Which melting point reading was recorded for the molecule CCc1ccc(-c2ccc(CCc3ccc(C)cc3)cc2)c(F)c1 ?
Response: 65 °C

Query: Which melting point reading was recorded for the molecule CCC(Oc1cccc(N(C)C)c1)C(=O)OC1CC(O)C=C2C=CC(C)C(CCC3CC(O)CC(=O)O3)C21 (mixture of isomers) ?
Response: 124 to 126 °C

Query: Which melting point reading was recorded for the molecule CCOC(=O)c1cn(-c2nc(NC)c(F)cc2F)c2c(Cl)c(F)c(F)cc2c1=O ?
Response: 207 to 209 °C

Query: Which melting point reading was recorded for the molecule O=C1c2cc3c(cc2-c2c1c(Cl)nc1ccccc21)OCO3 ?
Response: 265 to 270 °C

* * *

melting point reference

Example cases with answers are listed next.
# COMPOUND, melting point
rows = [
    ("CC(C)(C)COc1ccc(NC(=O)c2cnn(-c3ccc(F)cc3)c2Cl)cc1C#N", "149 to 150 °C"),
    ("O=C(O)c1c(-c2ccc(Cl)cc2)ccnc1Br", "204 to 208 °C"),
    ("O=CNC1Cc2cccc3c2N(CCC3)C1=O (stereo unspecified)", "140 to 143 °C"),
]

Query: Which melting point reading was recorded for the compound NCC1CN(c2c(F)cc3c(=O)c(C(=O)O)cn(-c4nc(N)c(F)cc4F)c3c2Cl)C1 ?
Response: 249 to 254 °C

Query: Which melting point reading was recorded for the compound CC(=O)Nc1ccc(N2CC(CNC(C)=S)OC2=O)cc1F (stereo unspecified) ?
Response: 200 to 201 °C

Query: Which melting point reading was recorded for the compound COc1ccc(CSCC(=O)NO)cc1OC ?
Response: 78 °C

* * *

PROPERTY_MEASURED: melting point

# COMPOUND_STRING, melting point
measured = [
    ("Cn1ncc2c1C(=O)C(Cl)=C(NC1CC1)C2=O", "175 to 176 °C"),
]

Query: Which melting point reading was recorded for the compound CC(C)(C)c1cc(-c2nc(S)sc2-c2ccccc2)cc(C(C)(C)C)c1O ?
Response: 168 to 171 °C

Query: Which melting point reading was recorded for the compound CCN1c2ncc(CC(=O)c3ccncc3)cc2C(=O)N(C)c2ccc(Cl)nc21 ?
Response: 154 °C

Query: Which melting point reading was recorded for the compound COc1cccc(Nc2nc(OCC3CCCCC3)c3[nH]cnc3n2)c1 ?
Response: 186 to 189 °C

Query: Which melting point reading was recorded for the compound O=C1c2ccccc2C(=O)N1CCCS(=O)(=O)c1ccccc1 ?
Response: 126 to 127 °C

* * *

melting point reference

Example cases with answers are listed next.
# COMPOUND, melting point
records = [
    ("C1=Cc2cc(C=C(c3ccc4c(c3)C=C4)c3ccc4c(c3)C=C4)ccc21", "87 to 89 °C"),
    ("O=C1N[C@H](Cc2ccc(C(F)(F)F)cc2)[C@H](c2ccncc2)O1 (racemic)", "212 to 213 °C"),
    ("Cc1cc(C)c(S(=O)(=O)OS(=O)(=O)c2c(C)cc(C)cc2C)c(C)c1", "194 to 198 °C"),
    ("COc1ccc2occ(CCN3CCN(c4cccc5cccnc45)CC3)c2c1", "78 °C"),
    ("CCCCCP(=O)(O)CCCN", "232 to 236 °C"),
    ("COc1ccc(Cc2sc3ccccc3c2-c2ccc(-c3ccc(OC(Cc4ccccc4)C(=O)O)cc3)cc2)cc1OC (stereo not given)", "59 to 61 °C"),
    ("O=P(O)(O)CCCCCCCCCCCCCCCCCCCCCCC(F)(F)C(F)(F)C(F)(F)C(F)(F)F", "106 to 108 °C"),
    ("CCC(C)C1CCCCC1NC(=O)c1sc(C)nc1C(F)(F)F (stereo not given)", "112 to 113 °C"),
    ("CC(=O)C1CNCc2c1[nH]c1cnc3cc(Cl)ccc3c21 (stereo not given)", "235 to 237 °C"),
    ("Cc1cc(-c2ccc(C(F)(F)F)cc2)cc(-c2ccnc(-c3ccnc(N)c3)n2)n1", "217 °C"),
]

Query: Which melting point reading was recorded for the compound Oc1c2c(nn1-c1ncccc1C(F)(F)F)CCc1ccccc1-2 ?
Response: 174 to 175 °C

Query: Which melting point reading was recorded for the compound CCNC(=O)n1nc(Oc2ncc(Cl)cc2Cl)cc1C ?
Response: 74 to 76 °C

Query: Which melting point reading was recorded for the compound CCOC(=O)C(NC(=O)OCc1ccccc1)C(=O)O (stereo not given) ?
Response: 65 to 70 °C

Query: Which melting point reading was recorded for the compound COc1c(Cl)cc(OCC=C(Cl)Cl)cc1C=NO ?
Response: 111 °C

Query: Which melting point reading was recorded for the compound CCOP(=O)(CCNC(=O)c1c(CC)nc2cc(OC)c(OC)cc2c1-c1ccc(OC)c(OC)c1)OCC ?
Response: 157 to 158 °C

Query: Which melting point reading was recorded for the compound FC(F)(F)Oc1cccc(CN2CCC(Nc3nnc(C(F)(F)F)s3)CC2)c1 ?
Response: 116 °C

Query: Which melting point reading was recorded for the compound CC(C)(C)OC(=O)NCCCCC(=O)Nc1ccc(O)c(C(=O)O)c1 ?
Response: 181 °C

Query: Which melting point reading was recorded for the compound CCCCCCN(O)CCCCCC ?
Response: 67 °C

Query: Which melting point reading was recorded for the compound Cc1cc(C(=O)C(=O)c2ccc(OC(F)F)cc2)ccc1F ?
Response: 77 to 78 °C

Query: Which melting point reading was recorded for the compound Cc1cc(-c2ccc(Cl)cc2)nc2c(-c3nc(-c4cccc(S(N)(=O)=O)c4)no3)cnn12 ?
Response: 275 °C

The origin of these recorded values is a melting point compilation (Tetko et al.; mined from patent text by program, amines drawn as free bases though some values may be those of a salt).
